Ref: the supplement of paper PMC8612539

Test system: Mannheimia haemolytica
Assay: minimum inhibitory concentration (MIC)
Details: isolate (source animal id): 201
Measured minimum inhibitory concentration of individual entries
The figure you give is taken to be in mg/L; do not add the unit.

compound="CCCN1C[C@H](C)[C@@H](O)[C@](C)(O)[C@@H](CC)OC(=O)[C@H](C)[C@@H](O[C@H]2C[C@@](C)(OC)[C@@H](O)[C@H](C)O2)[C@H](C)[C@@H](O[C@@H]2O[C@H](C)C[C@H](N(C)C)[C@H]2O)[C@](C)(O)C[C@H]1C [Gamithromycin]" experimental_result=2

Now let's try a different one.
**Query** Fill in: minimum inhibitory concentration of CN(C)[C@@H]1C(O)=C(C(N)=O)C(=O)[C@@]2(O)C(O)=C3C(=O)c4c(O)cccc4[C@@](C)(O)[C@H]3C[C@@H]12 [Tetracycline] is ___
**Result** 8

---

Test system: Pasteurella multocida
Experiment: minimum inhibitory concentration (MIC)
Conditions: isolate (source animal id): 23
MEASURED PROPERTY: minimum inhibitory concentration

Use the examples below as a reference point.
molecule="CC[C@H]1OC(=O)C[C@@H](O)[C@H](C)[C@@H](O[C@@H]2O[C@H](C)[C@@H](O)[C@H](N(C)C)[C@H]2O)[C@@H](CCN2CCCCC2)C[C@@H](C)C(=O)/C=C/C(C)=C/[C@@H]1CN1CCCCC1 [Tildipirosin]" system_name="Pasteurella multocida" experimental_result="> 16 µg/mL"
molecule="CC[C@H]1OC(=O)C[C@@H](O)[C@H](C)[C@@H](O[C@@H]2O[C@H](C)[C@@H](O[C@H]3C[C@@](C)(O)[C@@H](O)[C@H](C)O3)[C@H](N(C)C)[C@H]2O)[C@@H](CC=O)C[C@@H](C)C(=O)/C=C/C(C)=C/[C@@H]1CO[C@@H]1O[C@H](C)[C@@H](O)[C@@H](OC)[C@H]1OC [Tylosin]" system_name="Pasteurella multocida" experimental_result="> 32 µg/mL"
molecule="CC1(C)S[C@@H]2[C@H](NC(=O)[C@H](N)c3ccccc3)C(=O)N2[C@H]1C(=O)O [Ampicillin]" system_name="Pasteurella multocida" experimental_result="≤ 0.25 µg/mL"
molecule="COc1cc(Cc2cnc(N)nc2N)cc(OC)c1OC.Cc1cc(NS(=O)(=O)c2ccc(N)cc2)no1 [trimethoprim-sulfamethoxazole]" system_name="Pasteurella multocida" experimental_result="≤ 2 µg/mL"

**Query** Param readout = minimum inhibitory concentration; param system = Pasteurella multocida; param query = CN1C[C@@H]2C[C@H]1CN2c1cc2c(cc1F)c(=O)c(C(=O)O)cn2C1CC1 [Danofloxacin] ; response: value
**Result** 1 µg/mL

---

System: Histophilus somni
Experiment: minimum inhibitory concentration (MIC)
Details: isolate (source animal id): 147
MEASURED PROPERTY: minimum inhibitory concentration

input_smiles=CCN1CCN(c2cc3c(cc2F)c(=O)c(C(=O)O)cn3C2CC2)CC1 system_name="Histophilus somni" measured_property="minimum inhibitory concentration" experimental_result="≤ 0.12 µg/mL"
input_smiles=CN(C)[C@@H]1C(O)=C(C(N)=O)C(=O)[C@@]2(O)C(O)=C3C(=O)c4c(O)cccc4[C@@](C)(O)[C@H]3C[C@@H]12 system_name="Histophilus somni" measured_property="minimum inhibitory concentration" experimental_result="1 µg/mL"
input_smiles=COc1cc(Cc2cnc(N)nc2N)cc(OC)c1OC.Cc1cc(NS(=O)(=O)c2ccc(N)cc2)no1 system_name="Histophilus somni" measured_property="minimum inhibitory concentration" experimental_result="≤ 2 µg/mL"
input_smiles=CC[C@H]1OC(=O)C[C@@H](O)[C@H](C)[C@@H](O[C@@H]2O[C@H](C)[C@@H](O[C@H]3C[C@@](C)(O)[C@@H](O)[C@H](C)O3)[C@H](N(C)C)[C@H]2O)[C@@H](CC=O)C[C@@H](C)C(=O)/C=C/C(C)=C/[C@@H]1CO[C@@H]1O[C@H](C)[C@@H](O)[C@@H](OC)[C@H]1OC system_name="Histophilus somni" measured_property="minimum inhibitory concentration" experimental_result="> 32 µg/mL"
input_smiles=CN1C[C@@H]2C[C@H]1CN2c1cc2c(cc1F)c(=O)c(C(=O)O)cn2C1CC1 system_name="Histophilus somni" measured_property="minimum inhibitory concentration" experimental_result="≤ 0.12 µg/mL"

Lab note: next compound to report on.
**Query** What value of minimum inhibitory concentration has been reported for the following compound? CC[C@H]1OC(=O)C[C@@H](O)[C@H](C)[C@@H](O[C@@H]2O[C@H](C)[C@@H](O)[C@H](N(C)C)[C@H]2O)[C@@H](CCN2CCCCC2)C[C@@H](C)C(=O)/C=C/C(C)=C/[C@@H]1CN1CCCCC1
**Result** > 16 µg/mL
